ASSAY METHOD TEXT: NCI Yeast Anticancer Drug Screen. Data for the rad50 strain (AID 155);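 note: 0% = growth of vehicle-only cultures of the same strain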
CONDITION DESCRIPTION: S. cerevisiae rad50 strain growth inhibition; at 50.0 µM
This is part of a sample that, as a whole, favours compounds with a hit. Of some 79,000 tested, about 15% had one in any assay. Calls of active or inactive are those of the source. Cut-off read from the data, not from the text of the source: active = growth inhibition above about 70%; inactive = the rest.
Outcomes: YES for active, NO for inactive

>  <MOLECULE>
O=[N+]([O-])c1ccc(SC(=S)N2CCCCC2)c([N+](=O)[O-])c1

>  <CAT>
YES

$$$$
>  <MOLECULE>
OC1CC2CCC(C1)N2CCCN1c2ccccc2Sc2ccc(Cl)cc21 (configuration not stated)

>  <CAT>
YES

$$$$
>  <MOLECULE>
Nc1ccc2ccccc2c1N=Nc1ccccc1

>  <CAT>
YES

$$$$
>  <MOLECULE>
CCSc1nc2ccc(N3C(=O)C=CC3=O)cc2s1

>  <CAT>
YES

$$$$
>  <MOLECULE>
COc1cc2c(c(C3C(=O)N(C)c4ccc(Br)cc43)c1OC)OCO2 (configuration not stated)

>  <CAT>
NO

$$$$
>  <MOLECULE>
CN(C)C(N)=NC#N

>  <CAT>
YES

$$$$
>  <MOLECULE>
COC1=C(NC(C)=O)C(=O)c2nc(-c3nc(C(=O)O)c(C)c(-c4ccc(OC)c(OC)c4O)c3N)ccc2C1=O

>  <CAT>
YES

$$$$
>  <MOLECULE>
Cc1ccccc1C1c2c(C)cccc2C(=O)CC1CC(=O)O (configuration not stated)

>  <CAT>
NO

$$$$
>  <MOLECULE>
NCCCN1c2ccccc2Sc2ccc(Cl)cc21

>  <CAT>
NO

$$$$
>  <MOLECULE>
CC(C)C(=O)c1ccc2ccccc2c1O

>  <CAT>
NO

$$$$
>  <MOLECULE>
O=C1C(Cl)=C(Nc2cc(Cl)ccc2Cl)C(=O)c2ccccc21

>  <CAT>
NO

$$$$
>  <MOLECULE>
CC(Cc1ccccc1)NNC(C)Cc1ccccc1 (configuration not stated)

>  <CAT>
YES

$$$$
>  <MOLECULE>
CCCCC(/C=N\NC(=O)c1ccc[n+](C)c1)=C/c1ccccc1

>  <CAT>
YES

$$$$
>  <MOLECULE>
O=C(c1ccc(O)c(Br)c1)c1cc(Br)ccc1O

>  <CAT>
YES

$$$$
>  <MOLECULE>
Cc1csc2c1C(=O)c1ccsc1C2=O

>  <CAT>
YES

$$$$
>  <MOLECULE>
CCCCCCCCCc1cccc(N2C(N)=NC(N)=NC2(C)C)c1

>  <CAT>
YES

$$$$
>  <MOLECULE>
Cc1c(Cl)ccc2c1NC(=O)C2(O)CC(=O)c1ccc(Cl)cc1 (configuration not stated)

>  <CAT>
YES

$$$$

---

As shown below, each of these compounds has a reported growth inhibition value.
ASSAY METHOD TEXT: NCI Yeast Anticancer Drug Screen. Data for the cln2 rad14 strain (AID 165);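 note: 0% = growth equal to vehicle treated cultures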
CONDITION DESCRIPTION: S. cerevisiae cln2 rad14 strain, at 50.0 µM, hits give high values
Compounds without any hit were thinned out: in the full panel of roughly 79,000, 15% have a hit.

>  <COMPOUND>
CC(=O)N1CC(C)CC2OC3(CCC4C5CCC6CC(O)CCC6(C)C5C(=O)C4C3C)C(C)C21 (stereo not given)

>  <growth inhibition / %>
92.5

$$$$
>  <COMPOUND>
CCCCCCNC(=S)N/N=C(\C)c1ccccn1

>  <growth inhibition / %>
90.3

$$$$
>  <COMPOUND>
O=C(Nc1cccc(Cl)c1)OCCN(CCOC(=O)Nc1cccc(Cl)c1)C(=O)Nc1cccc(Cl)c1

>  <growth inhibition / %>
90.4

$$$$
>  <COMPOUND>
CCc1cccc(CC)c1Nc1nc2c(s1)C(=O)c1ccccc1C2=O

>  <growth inhibition / %>
90.3

$$$$
>  <COMPOUND>
N#Cc1cc([N+](=O)[O-])ccc1NC(=O)/C(=N/N)C(C(=O)c1ccc(Cl)c(Cl)c1)C1OC(=O)c2ccccc21 (stereo not given)

>  <growth inhibition / %>
90.2

$$$$

These measurements were taken from PubChem BioAssay (NCI).
